Measured values drawn from paper PMC4142572 for this set.

- measured-on: hPDE4B (Homo sapiens, UniProt Q07343)
- Sequence (Q07343 whole entry, canonical isoform): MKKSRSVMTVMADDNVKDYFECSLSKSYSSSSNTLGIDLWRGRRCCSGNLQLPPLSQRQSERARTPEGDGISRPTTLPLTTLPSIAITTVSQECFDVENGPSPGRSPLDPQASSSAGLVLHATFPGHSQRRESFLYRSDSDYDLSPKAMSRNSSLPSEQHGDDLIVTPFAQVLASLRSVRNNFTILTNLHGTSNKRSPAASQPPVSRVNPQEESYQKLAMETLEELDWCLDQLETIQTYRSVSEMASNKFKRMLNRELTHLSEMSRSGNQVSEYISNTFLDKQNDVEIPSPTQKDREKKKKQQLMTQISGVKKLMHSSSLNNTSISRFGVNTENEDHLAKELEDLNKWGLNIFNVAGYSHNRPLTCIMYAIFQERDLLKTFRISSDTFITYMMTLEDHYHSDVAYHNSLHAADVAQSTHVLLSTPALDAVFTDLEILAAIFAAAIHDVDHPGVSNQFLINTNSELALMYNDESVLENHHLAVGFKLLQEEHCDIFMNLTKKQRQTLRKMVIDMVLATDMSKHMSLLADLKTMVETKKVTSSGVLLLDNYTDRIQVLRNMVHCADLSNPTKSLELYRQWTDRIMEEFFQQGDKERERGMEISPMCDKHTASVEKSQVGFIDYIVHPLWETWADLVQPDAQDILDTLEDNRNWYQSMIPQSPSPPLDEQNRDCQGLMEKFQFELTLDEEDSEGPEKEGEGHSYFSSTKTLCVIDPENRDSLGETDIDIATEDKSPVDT
- method-summary: Enzymatic inhibition of PDE4B long isoform in vitro
experimental-readout: pIC50
Scale: negative log10 of molar concentration, which is what pIC50 denotes.

Name the recorded pIC50 of the item O=C(O)Cc1ccc(Nc2nc(-c3ccc(Cl)cc3)nc(C3CC3)n2)cc1 [Compound 9] in your answer.
6.11
